# assay-procedure: ATG_GLI_CIS: Attagene CIS-FACTORIAL HepG2 Assay for human Zinc Finger Protein GLI1 (AID 2282945)
# reported-conditions: HepG2, Attagene cis-factorial reporter mRNA, GLI element; actives raise or lower the signal
Activity calls are given as the source filed them. Rule for the calls: active = hit-call score of the fitted dose curve at least 0.9, where 1 is the maximum; inactive = score below 0.9.
Classes used: active, inactive

CCCCCCCCOC(C)=O : inactive
CCCCCC(=O)O[C@]1(C(C)=O)CC[C@H]2[C@@H]3CCC4=CC(=O)CC[C@]4(C)[C@H]3CC[C@@]21C : active
CCCCCCCCCOS(=O)(=O)O : inactive
CCC(C)C1CCCCC1=O (stereo not drawn) : inactive
Cc1ccncc1 : inactive
COc1ccc(N)c(C)c1 : inactive
CCCCCc1cccc(=O)o1 : inactive
Cc1cccc(C)c1 : inactive
